System: A549/ATCC NSCLC
assay.explanation: NCI-60 one-dose screen, 48 h (100 = growth as untreated, 0 = no growth, -100 = all killed)
particulars: 10 µM unless noted
Compounds without any hit were thinned out: in the full panel of roughly 83,000, 20% have a hit.
Binary label based on growth with cut-off 40%: below gives class 1, not below gives class 0.

Here's what some known entries look like.
Hi there! Is growth for Nc1n[nH]c2cc(F)c([C@@H]3Nc4c(F)cc5[nH]ncc5c4[C@H]4C5CCC(C5)[C@@H]34)cc12 (some centres undefined) below 40%, do you know?
class 1

Hi there! Is growth for COc1ccc(C2C(c3nn[nH]n3)=C(N)Oc3c2ccc2ccccc32)cc1 (centres undefined) below 40%, do you know?
class 0

Hi there! Is growth for `COc1ccc(/C=c2\nc3n(-c4ccccc4)c4nc5c6c(sc5c(=N)n4n-3c2=O)CCCC6)cc1` below 40%, do you know?
class 0

Hi there! Is growth for `O=C1OC(c2nc3ccccc3s2)=C/C1=C\c1ccc(O)cc1` below 40%, do you know?
class 0

---
Hi there! Is growth for `C[n+]1cc2c3c(ccc2c2ccc4cc5c(cc4c21)OCO5)OCO3` below 40%, do you know?
class 1

Hi there! Is growth for `COc1ccc(/C=N\NC(=O)c2cc(-c3ccc(Br)cc3)n(-c3ccc(S(N)(=O)=O)cc3)n2)cc1` below 40%, do you know?
class 0

Hi there! Is growth for `COc1cc(/C=C/C(=O)c2cccc(-n3cc(-c4ccccc4)[nH]c3=O)c2)ccc1O` below 40%, do you know?
class 0

Hi there! Is growth for `C[C@H]1[C@H]2[C@H]3CC[C@@H]4[C@@]5(C)C/C(=C/c6ccco6)C(=O)C(C)(C)[C@@H]5CC[C@@]4(C)[C@]3(C)CC[C@]23CO[C@]1(C)[C@@H](C(=O)/C=C\c1ccco1)C3` below 40%, do you know?
class 0

Hi there! Is growth for `COc1ccccc1NC(=O)N/C(N)=N/c1nc2ccccc2s1` below 40%, do you know?
class 1

Hi there! Is growth for `O=S(=O)(Nc1cccc(Cl)c1)c1ccc(-c2cnc(C3CC3)o2)cc1` below 40%, do you know?
class 1

Hi there! Is growth for CC1(C)OC2C(CO[Si](C)(C)C(C)(C)C)OC(n3c(I)c(C#C[Si](C)(C)C)c(=O)[nH]c3=O)C2O1 (centres undefined) below 40%, do you know?
class 0

----------
Tested on: UACC-257 melanoma
assay.explanation: NCI-60 one-dose screen, 48 h (100 = growth as untreated, 0 = no growth, -100 = all killed)
particulars: 10 µM unless noted
This is part of a sample that, as a whole, favours compounds with a hit. Of some 83,000 tested, about 20% had one in any assay.
Think of 90% as a floor: if growth stands on it or above, it is true (1); beneath it, false (0).

Here's what some known entries look like.
// inclusive: growth at least 90%? input: `COc1ccc(NC(=O)c2nc(-c3cc(OC)c(OC)c(OC)c3)n(-c3cccc4ccccc34)n2)cc1OC`
false (0)

// inclusive: growth at least 90%? input: `COc1ccc(C(=O)/C=C/c2c(C(F)(F)F)nc3sccn23)cc1OC`
false (0)

// inclusive: growth at least 90%? input: `O=[N+]([O-])c1ccc(N2c3ccncc3Sc3ccncc32)cc1`
true (1)

---
// inclusive: growth at least 90%? input: `O=C1CCc2c(sc3[nH]c(=S)n(-c4ccc(OC(F)(F)F)cc4)c(=O)c23)C1`
false (0)

// inclusive: growth at least 90%? input: `CC1(C)CC[C@]2(C(=O)N3CCOCC3)CC[C@]3(C)C(=CC[C@@H]4[C@@]5(C)CC[C@H](OC(=O)c6cccnc6)C(C)(C)[C@@H]5CC[C@]43C)[C@@H]2C1`
false (0)

// inclusive: growth at least 90%? input: CCCCC1CCCCN1C(=O)OCC (stereo not given)
true (1)

// inclusive: growth at least 90%? input: `CN(C)c1ccc(/C=C/C(=O)c2cccc(Nc3nc(Nc4ccccc4)nc(Nc4ccccc4)n3)c2)cc1`
true (1)

// inclusive: growth at least 90%? input: `O=C(CSc1nnc(-c2ccc(NC(=O)c3cccnc3)cc2)o1)Nc1cccc(Br)c1`
true (1)

// inclusive: growth at least 90%? input: `CSc1n(Cc2ccc3ccccc3c2)c(C)c[n+]1Cc1ccc2ccccc2c1`
false (0)

// inclusive: growth at least 90%? input: `N=C1CCC(=N)c2c1c(O)c1ccccc1c2O`
true (1)

----------
Test system: IGROV1 ovarian
assay.explanation: NCI-60 one-dose screen, 48 h (100 = growth as untreated, 0 = no growth, -100 = all killed)
particulars: 10 µM unless noted
Compounds without any hit were thinned out: in the full panel of roughly 83,000, 20% have a hit.
metric: growth (%)
I only need the number, in %, no unit after it.

Form entry - test system: IGROV1 ovarian; read-out: growth; compound: `COc1cc(/C=N/n2c(CN3CCOCC3)nc3ccccc3c2=O)cc(OC)c1OC`
98.3

Form entry - test system: IGROV1 ovarian; read-out: growth; compound: `COc1cccc(C(=O)NCCCNc2cc(-c3cn(-c4ccccc4)nc3-c3cccc(OC)c3)ccn2)c1`
58.9

Form entry - test system: IGROV1 ovarian; read-out: growth; compound: `Cc1ccc2[nH]c(=O)c3c(c2c1)OC(N)=C(C#N)C31c2cc(Br)ccc2-c2ccc(Br)cc21`
40.1

Form entry - test system: IGROV1 ovarian; read-out: growth; compound: COc1ccc(C2CC(c3cccc(OC)c3)=NN2C(=O)c2cc(OC)c(OC)c(OC)c2)cc1 (stereo not given)
27.9

Okay, now this compound:
Form entry - test system: IGROV1 ovarian; read-out: growth; compound: `N=C(N)c1ccc(-c2ccc(-c3cncc4ccccc34)s2)s1`
-75.1

----------
System: NCI-H322M lung
assay.explanation: NCI-60 one-dose screen, 48 h
particulars: 10 µM unless noted
This is part of a sample that, as a whole, favours compounds with a hit. Of some 83,000 tested, about 20% had one in any assay. Activity calls are given as the source filed them. Rule for the calls: active = growth percent below 10; inactive = the rest.
The reply should be one of these categories: 1 (active), 0 (inactive)

Here's what some known entries look like.
What did the test return for `O=C(CCCCCCN1CC(=O)N2[C@@H](c3ccccc3Cl)c3[nH]c4ccccc4c3C[C@H]2C1=O)NO` ?
0

What did the test return for `CCN(CC)CCCNc1ccc(Nc2ccc(OC)cc2)cc1` ?
0

Switching to the query record.
What did the test return for `O=C(N/N=C/C=C/c1ccc([N+](=O)[O-])o1)c1cc2ccccc2cc1O` ?
1

----------
Test system: IGROV1 ovarian
assay.explanation: NCI-60 one-dose screen, 48 h (100 = growth as untreated, 0 = no growth, -100 = all killed)
particulars: 10 µM unless noted
The panel holds about 83,000 compounds, 20% with a hit somewhere; the sample as a whole holds those more often.
Reported growth values are given for each entry in this list.
I only need the number, in %, no unit after it.

Recorded growth, per entry:
Fill in: growth of `COc1cc(/C=C/C(=O)c2c(C)nc3ccccc3c2/C=C/c2ccc(C)cc2)cc(OC)c1OC` is ___
21

Fill in: growth of `COc1ccc(/C=c2\nc3n(-c4ccccc4)c4nc5c6c(sc5c(=N)n4n-3c2=O)CCCC6)cc1` is ___
61.4

Fill in: growth of CCSC1=NC2C(N(CC)C(=O)N2CC)N1/N=C/C=C/c1ccccc1[N+](=O)[O-] (stereo not given) is ___
15.3

---
Fill in: growth of `C=CCSc1nc2ccccc2cc1/C=N/O` is ___
74.1

Fill in: growth of `CCCCCCCCn1ccc2cc(NC(=O)Cn3cc(CN4CCCC4)nn3)ccc21` is ___
76

Fill in: growth of `CCN1CCN(c2nc(C)cc(NCc3cc(Nc4ccnc5cc(Cl)ccc45)ccc3F)n2)CC1` is ___
15.8

Fill in: growth of `CCCCNC(=O)Oc1ccc2c(=O)c3sc4c(=O)c5ccccc5c(=O)c4c3c(=O)c2c1` is ___
-25.6

Fill in: growth of CCN1C(=O)N(CC)C2Nn3c(s/c(=C4\C(=O)N(C)c5ccccc54)c3=O)=NC21 (stereo not given) is ___
43.3

----------
Tested on: DU-145 prostate
assay.explanation: NCI-60 one-dose screen, 48 h
particulars: 10 µM unless noted
The panel holds about 83,000 compounds, 20% with a hit somewhere; the sample as a whole holds those more often. The source made the active and inactive calls. The calls were made as follows: active = growth percent below 10; inactive = the rest.
The reply should be one of these categories: Yes (active), No (inactive)

Here's what some known entries look like.
What did the test return for `O=C(CCCCCCSc1nc(-c2ccccc2)cc(-c2ccc(Cl)cc2)n1)NO` ?
Yes

What did the test return for CCN1C(=O)N(CC)C2Nn3c(s/c(=C4\C(=O)N(C)c5ccccc54)c3=O)=NC21 (stereo not given) ?
No

What did the test return for `COc1cc(/C=C/C(=O)c2cccc(-n3cc(-c4ccccc4)[nH]c3=O)c2)ccc1O` ?
No

What did the test return for `CC/C=C\C[C@H](O)C/C=C1/C(=O)C=C[C@@H]1C/C=C\CCCCO` ?
No

What did the test return for `CN(C)CCNc1nc2ccccc2c2c1c1c(n2Cc2ccccc2)-c2ccccc2C1=O` ?
Yes

What did the test return for `NC(N)=Nc1nc2ccccc2n2c1nc1ccccc12` ?
No

What did the test return for `CCOC(=O)c1c(/C=C/C(=O)O)nc2ccccc2c1/C=C/c1ccccc1` ?
No

What did the test return for `O=C(Nc1cccc(Cl)c1)c1cc(N=Nc2ccc([N+](=O)[O-])cc2Cl)ccc1O` ?
No

---
What did the test return for COC(=O)c1ccc(C2Nc3ccc(S(=O)(=O)Nc4ccc(C)c(C)c4)cc3C3OCCC23)cc1 (stereo not given) ?
No

What did the test return for COc1ccc(C2CC(c3cccc(OC)c3)=NN2C(=O)c2cc(OC)c(OC)c(OC)c2)cc1 (stereo not given) ?
Yes

What did the test return for `CN(C)c1ccc(/C=C/C(=O)c2cccc(Nc3nc(Nc4ccccc4)nc(Nc4ccccc4)n3)c2)cc1` ?
No

What did the test return for O=C1CC(N2C(=O)/C(=C/C(Cl)=C\c3ccc([N+](=O)[O-])cc3)SC2=S)C(=O)N1c1ccc(O)cc1 (stereo not given) ?
Yes

What did the test return for `CCc1ccccc1-n1c(N)c(C#N)c(-c2ccc(N(C)C)cc2)c(C#N)c1=O` ?
No

What did the test return for `O=C1c2cccc(NCCN=Cc3cc([N+](=O)[O-])ccc3O)c2C(=O)c2c(NCCN=Cc3cc([N+](=O)[O-])ccc3O)cccc21` ?
No

What did the test return for `Cc1ccc2nc(NC(=O)CSc3nc(Nc4ccc([N+](=O)[O-])cc4)c(C#N)c(-c4ccccc4)n3)sc2c1` ?
No

What did the test return for COc1ccc(Cl)cc1NC(=O)C(Br)C(Br)C(=O)O (stereo not given) ?
No

What did the test return for `CCN(CC)Cc1cccc(C(=O)OC)c1` ?
No

What did the test return for `N/C(=N/N=C/c1ccccc1)N/N=C\c1ccccc1` ?
No
